Quick reference: MIC of the listed items.
- System: Botrytis cinerea
- method_summary: Antifungal activity against Botrytis cinerea 98G1 spore germination after 24 hrs at 20 degC in darkness by microtiter plate method
- Type: functional
- conditions_used: 98G1, 24 h

The recorded MIC for entry "CC(C)C[C@H]1C(=O)O[C@H](C(C)C)C(=O)N(C)[C@@H](C(C)C)C(=O)O[C@H](C(C)C)C(=O)N(C)[C@@H](C(C)C)C(=O)O[C@H](C(C)C)C(=O)N1C" equals > 100 µg/mL

Form: compound = "CC[C@H]1C(=O)O[C@H](C(C)C)C(=O)N(C)[C@@H](C(C)C)C(=O)O[C@H](C(C)C)C(=O)N(C)[C@@H](C(C)C)C(=O)O[C@H](C(C)C)C(=O)N1C" ; MIC = > 100 µg/mL
